- Study System: PSG G322A G335A (PSD-95)
- Experiment Summary: FP displacement (competition) of FITC-15 AA CRIPT by library peptide, IC50 and Ki
- Condition Parameters: read-out: Ki (µM), PSG G322A G335A; FP displacement of FITC-15 AA CRIPT probe by acetylated PSD library peptide
Each record here notes measured Ki.
Unit µM implied. Number only.

For orientation, consider the following solved cases.
>  <Compound>
CC(=O)N[C@@H](Cc1ccc(O)cc1)C(=O)N[C@@H](CC(C)C)C(=O)N[C@@H](Cc1c[nH]cn1)C(=O)NCC(=O)N[C@@H](Cc1c[nH]cn1)C(=O)N[C@@H](CCCNC(=N)N)C(=O)N[C@@H](Cc1ccc(O)cc1)C(=O)N[C@@H](CO)C(=O)N[C@@H](CO)C(=O)NCC(=O)N[C@@H](CO)C(=O)N[C@@H](CCCNC(=N)N)C(=O)N[C@@H](CO)C(=O)N[C@@H](CC(C)C)C(=O)N[C@H](C(=O)O)C(C)C [IQEC3]

>  <Unit Spec>
µM

>  <Ki>
197

$$$$
>  <Compound>
CC(=O)N[C@@H](Cc1ccc(O)cc1)C(=O)N[C@H](C(=O)N[C@@H](CCC(=O)O)C(=O)N[C@@H](CO)C(=O)N[C@@H](CC(C)C)C(=O)N[C@@H](CO)C(=O)N[C@@H](CO)C(=O)N[C@@H](CCC(=O)O)C(=O)N[C@@H](CO)C(=O)N[C@H](C(=O)N[C@@H](C)C(=O)N[C@H](C(=O)N[C@@H](CO)C(=O)N1CCC[C@H]1C(=O)N[C@H](C(=O)O)C(C)C)[C@@H](C)O)[C@@H](C)O)C(C)C [TNR16]

>  <Unit Spec>
µM

>  <Ki>
304

$$$$
>  <Compound>
CSCC[C@H](NC(=O)[C@H](CO)NC(=O)[C@H](Cc1ccc(O)cc1)NC(=O)[C@H](CC(C)C)NC(=O)[C@H](Cc1ccc(O)cc1)NC(=O)[C@H](Cc1ccc(O)cc1)NC(=O)[C@H](Cc1ccccc1)NC(=O)[C@H](Cc1ccc(O)cc1)NC(C)=O)C(=O)N[C@H](C(=O)N[C@@H](Cc1ccc(O)cc1)C(=O)N[C@H](C(=O)N[C@@H](CC(C)C)C(=O)N[C@H](C(=O)N[C@@H](CO)C(=O)N[C@@H](Cc1ccccc1)C(=O)O)C(C)C)[C@@H](C)O)C(C)C [CNIH2]

>  <Unit Spec>
µM

>  <Ki>
252

$$$$

Give measured Ki for CC[C@H](C)[C@H](NC(=O)[C@H](Cc1ccccc1)NC(=O)[C@H](Cc1ccc(O)cc1)NC(=O)[C@@H]1CCCN1C(=O)[C@H](CCC(N)=O)NC(=O)[C@H](Cc1ccc(O)cc1)NC(C)=O)C(=O)N[C@H](C(=O)N[C@@H](CC(N)=O)C(=O)N[C@@H](CO)C(=O)N[C@@H](CCCCN)C(=O)N[C@H](C(=O)N[C@@H](CCC(=O)O)C(=O)N[C@H](C(=O)N[C@H](C(=O)N[C@H](C(=O)O)C(C)C)[C@@H](C)O)C(C)C)[C@@H](C)O)[C@@H](C)O [SHSA9] (PSG G322A G335A (PSD-95)). 344

Give measured Ki for CC(=O)N[C@@H](Cc1ccc(O)cc1)C(=O)N[C@@H](CO)C(=O)N[C@@H](CC(C)C)C(=O)N[C@@H](CO)C(=O)N[C@@H](CCCCN)C(=O)N[C@@H](Cc1c[nH]cn1)C(=O)N[C@@H](CCC(=O)O)C(=O)N[C@@H](CO)C(=O)N[C@@H](CCC(=O)O)C(=O)N[C@@H](Cc1ccc(O)cc1)C(=O)N[C@@H](CC(N)=O)C(=O)N[C@H](C(=O)N[C@H](C(=O)N[C@@H](CCCNC(=N)N)C(=O)N[C@H](C(=O)O)C(C)C)[C@@H](C)O)[C@@H](C)O [NETO1] (PSG G322A G335A (PSD-95)). 22
